system: FER; conditions: concentration: 1 μM,replicates: in singlicate; n = 1;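 note: KINOMEscan kinase panel screen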
In plain terms, low %Inh, meaning strictly below 10%, gives condition met, and everything else gives condition not met.

Lookup: Determine whether this compound shows %Inh lower than 10% (ties excluded): Cc1occc1-c1nc(N)c(OC[C@@H](N)Cc2c[nH]c3ccccc23)cc1-c1cc2c(C)n[nH]c2cn1
Found: condition met

Lookup: Confirm or reject: %Inh of Cl.Cl.Nc1nc(-c2ccc3c(N)n[nH]c3c2)cc(N2CCCC(NC(=O)c3ccccc3)C2)n1 (centres unmarked) lies strictly below 10%
Found: condition met

Lookup: Please let me know if CN(C)CCOc1ccc(-c2cc(-c3c[nH]nc3-c3ccccn3)ccn2)cc1 shows %Inh below 10%.
Found: condition not met

Lookup: Quick check: %Inh of C[C@@H](Oc1cc(-c2cnn(C3CCNCC3)c2)cnc1N)c1c(Cl)ccc(F)c1Cl under 10%?
Found: condition not met

Lookup: Bench note: check whether CCn1c(-c2nonc2N)nc2c(C#CC(C)(C)O)nc(OCCN)cc21.Cl.Cl shows %Inh below 10%
Found: condition not met

Lookup: Lab note: %Inh threshold 10%. Does this compound come in strictly under it? C[C@H]1Oc2cc(cnc2N)-c2c(nn(C)c2C#N)CN(C)C(=O)c2ccc(F)cc21
Found: condition not met

Lookup: I'd appreciate it if you could check whether Cl.Cl.NC[C@H](Cc1ccc(C(F)(F)F)cc1)NC(=O)c1cc(Br)c(-c2ccnc3[nH]ccc23)s1 has %Inh smaller than 10%.
Found: condition met

Lookup: Confirm or reject: %Inh of C=CC(=O)Nc1cc2c(Nc3ccc(F)c(Cl)c3)ncnc2cc1OCCCN1CCOCC1 lies strictly below 10%
Found: condition met

Lookup: Is %Inh strictly under 10% for the entry Cl.Cl.NC[C@H](CC1CCCCC1)NC(=O)c1cc(Br)c(-c2ccnc3[nH]ccc23)s1 ?
Found: condition not met

Lookup: Here's an entry: Cc1cc(C(=O)Nc2ccc(Oc3ccc4nc(NC(=O)C5CC5)cn4n3)cc2)nn1-c1ccccc1 . Is its %Inh below 10%?
Found: condition not met

* * *

tested on: PIK3CG; conditions: concentration: 1 μM,replicates: in singlicate; n = 1
Hi there, I'd appreciate the recorded %Inh for every entry that follows.
Give the number; % is assumed, so skip it.

Lookup: What value of %Inh has been recorded for this entry: CCN(CC)CCCCNc1ncc2cc(-c3c(Cl)cccc3Cl)c(NC(=O)NC(C)(C)C)nc2n1
Found: 2

Lookup: # query: %Inh of entry CNC(=O)c1ccccc1Sc1ccc2c(/C=C/c3ccccn3)n[nH]c2c1
Found: 2

Lookup: Request the reported %Inh associated with NC(=O)c1cc(-c2ccccc2)cc2c(C3CCNCC3)c[nH]c12
Found: 2

* * *

test system: HIPK2; conditions: concentration: 1 μM,replicates: in singlicate; n = 1
I'd be grateful if you could share measured %Inh for these entries.
Record the result as number plus unit.

Lookup: # %Inh lookup, item CN(C)CCOc1ccc(-c2cc(-c3c[nH]nc3-c3ccccn3)ccn2)cc1
Found: 0%

Lookup: Fill in: %Inh of CCN(CC)CCOc1ccc(Nc2ncc3cc(-c4c(Cl)cccc4Cl)c(=O)n(C)c3n2)cc1 is ___
Found: 34%

Lookup: What value of %Inh has been recorded for this entry: C=CC(=O)Nc1cc2c(Nc3ccc(F)c(Cl)c3)ncnc2cc1OCCCN1CCOCC1
Found: 40%

Lookup: Which %Inh value belongs to CN(C)CC(O)COc1ccc(Nc2nccc(-c3cnn4nc(N5CCOCC5)ccc34)n2)cc1 (centres unmarked) ?
Found: 100%

Lookup: # %Inh lookup, item Cl.Cl.NC[C@H](CC1CCCCC1)NC(=O)c1cc(Br)c(-c2ccnc3[nH]ccc23)s1
Found: 74%

Lookup: So what does the record say about %Inh for Cl.Cl.Nc1nc(-c2ccc3c(N)n[nH]c3c2)cc(N2CCCC(NC(=O)c3ccccc3)C2)n1 (centres unmarked) ?
Found: 0%

Lookup: Query: %Inh; subject: CC(C)Nc1cc(-c2ccc3c(N)n[nH]c3c2)nc(N)n1
Found: 0%

Lookup: Quick check: %Inh of CC(C)N1C(=O)Cc2cc(Nc3ncc(C(F)(F)F)c(NCc4cccc(S(C)(=O)=O)c4)n3)ccc21 ?
Found: 40%

Lookup: Fill blank: measured %Inh of the compound COc1ccc(C[C@@H](CN)NC(=O)c2cc(Br)c(-c3ccnc4[nH]ccc34)s2)cc1.Cl.Cl is ____.
Found: 94%

Lookup: Quick one: %Inh of Cc1ccc2c(-c3ccncc3)c(-c3ccc(F)cc3)nn2c1.Cl ?
Found: 0%

Lookup: Could you tell me which %Inh is on file for Cl.Oc1cc(-c2nc(-c3ccccc3)[nH]c2-c2ccncc2)ccc1Cl ?
Found: 44%

Lookup: Which %Inh reading was recorded for the compound Cc1occc1-c1nc(N)c(OC[C@@H](N)Cc2c[nH]c3ccccc23)cc1-c1cc2c(C)n[nH]c2cn1 ?
Found: 99.1%

Lookup: Fill in: %Inh of Cc1cc2cn[nH]c2cc1-c1cccc2c(N)c(C(N)=O)nnc12 is ___
Found: 50%

Lookup: Reported %Inh for Nc1nc(Nc2ccccc2)cc(-c2ccc3c(N)n[nH]c3c2)n1 : what is it?
Found: 15%

Values were extracted from paper PMC5540273.
